- Test system: M14 melanoma
- Method: NCI-60 one-dose screen, 48 h (100 = growth as untreated, 0 = no growth, -100 = all killed)
- Stated Conditions: 10 µM unless noted
The panel holds about 83,000 compounds, 20% with a hit somewhere; the sample as a whole holds those more often.
In this section we review reported growth values for a set of compounds.

Compound	Tgt	growth [%]
C[C@@H](Oc1cc(-c2cnn(C3CCNCC3)c2)cnc1N)c1c(Cl)ccc(F)c1Cl	M14 melanoma	-77.2
Nc1nc(N)c2cc(CNc3ccc(C(=O)NC(CC(=O)O)C(=O)O)cc3)ccc2n1 (stereo not given)	M14 melanoma	16.7
CC(C)NC[C@@H](C(=O)N1CCN(c2ncnc3c2[C@H](C)C[C@H]3O)CC1)c1ccc(Cl)cc1	M14 melanoma	69.9
CCCCCCCC12Cc3ccccc3C1=Nc1c(c3ccccc3n1C)C2=O (stereo not given)	M14 melanoma	95.3
C/C(=C(/c1ccc(Cl)cc1)c1ccc(OCCN2CCCCCC2)cc1)c1ccccc1	M14 melanoma	81.4
CO[C@H]1C[C@@H]2CC[C@@H](C)[C@@](O)(O2)C(=O)C(=O)N2CCCC[C@H]2C(=O)O[C@H]([C@H](C)C[C@@H]2CC[C@@H](OC(=O)C(C)(CO)CO)[C@H](OC)C2)CC(=O)[C@H](C)/C=C(\C)[C@@H](O)[C@@H](OC)C(=O)[C@H](C)C[C@H](C)\C=C/C=C/C=C/1C	M14 melanoma	32.3
Cn1nccc1Nc1nccc(-c2ccn([C@H](CO)c3ccc(Cl)c(F)c3)c(=O)c2)n1	M14 melanoma	24.3
COc1cnc2c(c1)C(=O)c1c-2n(CCCN2CCOCC2)c(=O)c2cc(Cl)ccc12	M14 melanoma	11.9
NC1(c2ccc(-c3nc4ccn5c(=O)[nH]nc5c4cc3-c3ccccc3)cc2)CCC1	M14 melanoma	-66.5
COc1cccc2cc(-c3nc(C4CCC(C(=O)O)CC4)n4ncnc(N)c34)[nH]c12 (stereo not given)	M14 melanoma	4.34
CCc1nc2cc(/C=C/C(=O)NO)ccc2c(=O)n1CCc1ccc(F)cc1	M14 melanoma	6.79
Oc1ccc(C(c2ccc(O)cc2)C(Cl)(Cl)Cl)cc1	M14 melanoma	105
CC1(C=O)NC(=O)NC1=O (stereo not given)	M14 melanoma	103
CCCCCCCC(=O)SCC/C=C/[C@@H]1CC(=O)NCc2cc(ccn2)C2=N[C@@](C)(CS2)C(=O)N[C@@H](C(C)C)C(=O)O1	M14 melanoma	4.89
CCCCCCC1(/C=N/NC(N)=O)NC(=O)NC1=O (stereo not given)	M14 melanoma	97.3

----------
- System: OVCAR-4 ovarian
- Method: NCI-60 one-dose screen, 48 h (100 = growth as untreated, 0 = no growth, -100 = all killed)
- Stated Conditions: 10 µM unless noted
About 83,000 compounds went through this panel and 20% of them were active in at least one assay; those are over-represented in the sample as a whole.
In this section we review reported growth values for a set of compounds.

Structure Notation	Tgt	growth (%)
Cc1cc(C(=O)Nc2cc(Oc3ccc4nc(NC(=O)C5CC5)cn4n3)ccc2C)n(C)n1	OVCAR-4 ovarian	49
CC(=O)O[C@]1(C)C[C@H](O)[C@]2(O)C=CO[C@H](O[C@@H]3O[C@H](CO)[C@@H](O)[C@H](O)[C@H]3O)[C@@H]21	OVCAR-4 ovarian	99.8
CCN(CCN(C)C)C(=O)CNCc1cc(C(N)=O)ccn1	OVCAR-4 ovarian	109
CCCCn1c(C)nc2cc(Nc3nc(N4CCCCC4)nc4nc[nH]c34)ccc21	OVCAR-4 ovarian	19
CN1CCC(CNc2ccc3ncc(-c4cccc(OC(F)(F)F)c4)n3n2)CC1	OVCAR-4 ovarian	-1.72
COc1cc(-c2nc(C(=O)Nc3ccc(C)cc3)nn2-c2ccc(F)c(F)c2)cc(OC)c1OC	OVCAR-4 ovarian	103
CCNC(=O)Nc1nc2ccc(Oc3ccnc(C(=O)NC)c3)cc2s1	OVCAR-4 ovarian	83

----------
- Test system: SK-OV-3 ovarian
- Method: NCI-60 one-dose screen, 48 h (100 = growth as untreated, 0 = no growth, -100 = all killed)
- Stated Conditions: 10 µM unless noted
This is part of a sample that, as a whole, favours compounds with a hit. Of some 83,000 tested, about 20% had one in any assay.
Assay Readout: growth (%)

Molecule	Reported Value
N#Cc1c(-c2ccc(C(F)(F)F)cc2)c(F)c(NCCC2CCC(O)C2)n2c1nc1ccccc12 (stereo not given)	43.2
CCN(CC)C(=O)C[N+](C)(C)CCOC(c1ccccc1)c1ccccc1	107
C=CCCCOC1[C@H](OCc2ccccc2)C(OCc2ccccc2)C(OC)O[C@@H]1CNC(=O)c1cccc(I)c1 (stereo not given in full)	45.5
CCN(CC)CCOc1ccc(/C(=C(\C)c2ccc(Cl)cc2)c2ccc(Cl)cc2)cc1	103
O=c1[nH]c([C@@H]2CCCN2)nc2c1oc1ccc(Cl)cc12	24

----------
- Test system: OVCAR-5 ovarian
- Method: NCI-60 one-dose screen, 48 h (100 = growth as untreated, 0 = no growth, -100 = all killed)
- Stated Conditions: 10 µM unless noted
Compounds without any hit were thinned out: in the full panel of roughly 83,000, 20% have a hit.

Compound	growth, %
Cc1cccc(C)c1N1C(c2ccccc2)=NNC12C=CC(=O)c1c(O)cccc12 (configuration not stated)	90.8
CN(C)CCOC(=O)Nc1nc2ccc(Sc3ccccc3)cc2[nH]1	59.8
CN1CCN(c2nc(NCCNc3ccnc4cc(Cl)ccc34)c3ccccc3n2)CC1	59.9
C=CC(=O)N(C)[C@H]1C[C@H]2OC(C)(C1OC)n1c3ccccc3c3c4c(c5c6ccccc6n2c5c31)C(=O)NC4 (some centres not stated)	28.9
C/C=C/C=N/NC(=S)Nc1ccccc1	82.2
Cc1cc2c(-c3nc4ccccn4c3NC34CC5CC(CC(C5)C3)C4)c(O)c(O)cc2c(O)c1-c1c(C)cc2c(-c3nc4ccccn4c3NC34CC5CC(CC(C5)C3)C4)c(O)c(O)cc2c1O	29.3
COc1ccc(Br)cc1NC(=O)Nc1cccc2c1ccn2Cc1ccnc(N)c1	47.8
Cc1cn(-c2cc(NC(=O)c3ccc(C)c(Nc4nccc(-c5cccnc5)n4)c3)cc(C(F)(F)F)c2)cn1	57
CCc1nc2cc(/C=C/C(=O)NO)c(F)cc2c(=O)n1CCc1ccccc1	25.4
COc1ncc(-c2ccc3nccc(-c4ccnnc4)c3c2)cc1NS(=O)(=O)c1ccc(F)cc1F	7.97
COc1cccc(Nc2ncnn3ccc(CN4CC[C@@H](N)[C@H](O)C4)c23)c1	25.5
CC(C)n1c(NCCc2ccc(O)c(O)c2)nc2c1c(=O)n(C)c(=O)n2C	79.2

----------
- System: BT-549 breast
- Method: NCI-60 one-dose screen, 48 h
- Stated Conditions: 10 µM unless noted
About 83,000 compounds went through this panel and 20% of them were active in at least one assay; those are over-represented in the sample as a whole. Activity calls are given as the source filed them. The calls were made as follows: active = growth percent below 10; inactive = the rest.
Labels: class 1 = active, class 0 = inactive

Compound	Category
C=CCN(/C=C1/C(=O)O[C@H](COC)[C@@]2(C)C1=C(O)C(=O)C1=C2[C@H](OC(C)=O)C[C@]2(C)C(=O)CC[C@@H]12)CC=C	class 1
COc1ccc(-c2ccc3ncc4c(c3c2)n(-c2ccc(N3CCNCC3)c(C(F)(F)F)c2)c(=O)n4C)cn1	class 1
CCNC(=O)Nc1nc2ccc(Oc3ccnc(C(=O)NC)c3)cc2s1	class 0
C[C@@]1(C(=O)Nc2ccc(F)nc2)CCCN1c1nc(Nc2cc(C3CC3)[nH]n2)c2cccn2n1	class 0
COc1ccc(-c2cnc(-c3ccc(Cl)cc3)[nH]2)cc1OC	class 0
COc1cc2c(Oc3ccc4[nH]c(C)cc4c3F)ncnc2cc1OCCCN1CCCC1	class 0
C=CC[n+]1c(/C=C2\Sc3ccccc3N2C)sc(-c2ccccc2)c1-c1ccccc1	class 0
NC(=O)Nc1cc(-c2cccc(F)c2)sc1C(=O)N[C@H]1CCCNC1	class 1
OCCNC(=S)Nc1ccc(-c2nc(N3C[C@H]4CC[C@@H](C3)O4)c3cccn3n2)cc1	class 1
CO[C@@H](C)Cn1c(=O)n(C)c2cnc3ccc(-c4cncc(C(C)(C)O)c4)cc3c21	class 1
CCn1c(-c2nonc2N)nc2c(C#CC(C)(C)O)ncc(OC[C@H]3CCCNC3)c21	class 0
COc1cc2ncnc(Oc3cccc(NC(=O)Nc4cc(C(C)(C)C(F)(F)F)on4)c3)c2cc1OC	class 0
COC(=O)[C@H](C)NC(=O)[C@@H](OC)[C@@H]1Cc2cc3cc(OC4CC(OC5CC(O)C(O)C(C)O5)C(O)C(C)O4)c(C)c(O)c3c(O)c2C(=O)[C@H]1OC1CC(OC2CC(OC3CC(C)(O)C(O)C(C)O3)C(O)C(C)O2)C(O)C(C)O1 (stereo partly drawn)	class 1
O=C(Cn1cncn1)Nc1ccc(-c2nc3ccccc3s2)cc1	class 0
CSc1nc2ncncc2[nH]1	class 0
CCn1cc(-c2ccnc3[nH]c(-c4cccc(CN(C)C)c4)cc23)c(-c2ccc(NC(=O)N(C)C)cc2)n1	class 0
CC(C)[C@@H]1CC[C@]2(CO2)[C@@H]2C(=O)OCC(C(=O)O)=C[C@H]21	class 1
O=c1[nH]c([C@@H]2CCCN2)nc2c1oc1ccc(Cl)cc12	class 0
N[C@@H]1CCCN(c2c(/C=C3\SC(=O)NC3=O)cccc2-c2ccccc2)C1	class 1
CNC(=O)c1cccc2cc(Oc3ccnc4cc(OCC5(N)CC5)c(OC)cc34)ccc12	class 0
C[C@H]1Oc2cc(cnc2N)-c2c(nn(C)c2C#N)CN(C)C(=O)c2ccc(F)cc21	class 0
COc1cc2ncnc(Nc3ccc(O)cc3)c2cc1OC	class 0
O=C(Cc1ccc(/C=C/C(=O)c2ncc[nH]2)cc1)Nc1ccc(S(F)(F)(F)(F)F)cc1	class 0
COc1ccc(C(=O)N2c3ccccc3Sc3ccccc32)c(F)c1	class 0
O=C1CSC(c2c(F)cccc2Cl)N1NC(=O)C(O)(c1ccccc1)c1ccccc1 (stereo not drawn)	class 0
Cc1nn(-c2nc3ccccc3[nH]2)c2c1C(c1ccc(OCc3ccc(F)cc3)cc1)CC(=O)N2 (stereo not drawn)	class 0
COc1ccc(Nc2ncccc2NC(=O)c2cn(Cc3cccc(Oc4ccccc4)c3)nn2)cc1	class 0
S=C(NCc1ccc2c(c1)OCO2)N1CCN(c2ncnc3c2oc2ccccc23)CC1	class 0
O=C(NO)c1ccc(Cn2c(=O)n(CCc3ccccc3)c(=O)c3ccccc32)cc1	class 0
O=C(NCCO)Nc1ccc(-c2nc(N3CCOCC3)c3cccn3n2)cc1	class 1
CC(=O)Nc1cccc(-n2c(=O)n(C3CC3)c(=O)c3c(Nc4ccc(I)cc4F)n(C)c(=O)c(C)c32)c1	class 0
COc1cnc2c(c1)C(=O)c1c-2n(CCCn2ccnc2)c(=O)c2cc(Cl)ccc12	class 0
COC(=O)C1=C(C(=O)OC)C23C=C(C)C1C2=C(C)C1(CC1)[C@@](C)(O)C3=O (stereo partly drawn)	class 1
